# measured.on: T1, huNav1.7α on HEK cells (without β subunits) (human, UniProt Q15858 1-1988)
# T1 construct: also called HEKa huNav1.7α
# assay.notes: binding FACS, HEK cells (HEKa)
pEC50: −log10 of the molar value.
measured.endpoint: pEC50

binder	pEC50
F0103275B05 (VHH, also called F0103275B05 (parental)-FLAG-HIS6) VHH: EVQLVESGGGLVQPGGSLRLSCAASGSIFNINSMAWYRRAPGKQRELVASSTNGGSTNYADSVKGRFTISRDNAKRVYLQMNSLTPEDTAVYYCNALLQPSIYDISRTYWGQGTLVTVSS	7.85
F010301636 (VHH, also called F0103275B05(L11V, R76N, T83R, V89L)) VHH: EVQLVESGGGVVQPGGSLRLSCAASGSIFNINSMAWYRRAPGKQRELVASSTNGGSTNYADSVKGRFTISRDNAKNVYLQMNSLRPEDTALYYCNALLQPSIYDISRTYWGQGTLVTVSS	7.77
F010301638 (VHH, also called F0103275B05(L11V, R39Q, R76N, T83R, V89L)) VHH: EVQLVESGGGVVQPGGSLRLSCAASGSIFNINSMAWYRQAPGKQRELVASSTNGGSTNYADSVKGRFTISRDNAKNVYLQMNSLRPEDTALYYCNALLQPSIYDISRTYWGQGTLVTVSS	7.64
F010301635 (VHH, also called F0103275B05(L11V, R39Q, T83R, V89L)) VHH: EVQLVESGGGVVQPGGSLRLSCAASGSIFNINSMAWYRQAPGKQRELVASSTNGGSTNYADSVKGRFTISRDNAKRVYLQMNSLRPEDTALYYCNALLQPSIYDISRTYWGQGTLVTVSS	7.72

src = patent US20240002497A1
